Assay: clinical
Details: human, in vivo, 8 day
Given measured Subject C, Urine Results, output yes (1) if it is greater than or equal to 2000 ng/m and no (0) if not.

Say whether Cc1cc2nc3c(=O)[nH]c(=O)nc-3n(C[C@H](O)[C@H](O)[C@H](O)CO)c2cc1C [Riboflavin] shows Subject C, Urine Results of 2000 ng/m or more.
yes (1)

Say whether CNC(=C[N+](=O)[O-])NCCSCc1ccc(CN(C)C)o1 [Ranitidine] shows Subject C, Urine Results of 2000 ng/m or more.
no (0)

Say whether NC(N)=Nc1nc(CSCCC(N)=NS(N)(=O)=O)cs1 [Famotidine] shows Subject C, Urine Results of 2000 ng/m or more.
no (0)

Say whether CN(C)CCOC(c1ccccc1)c1ccccc1 [Diphenhydramine] shows Subject C, Urine Results of 2000 ng/m or more.
yes (1)
